The reported measurements were obtained from patent US20240116985A1.

Molecular target: full-length beta-Catenin (Uniprot ID P35222) (Homo sapiens)
Construct: 10 nM full-length beta-Catenin (Uniprot ID P35222)
Sequence (P35222 1-781): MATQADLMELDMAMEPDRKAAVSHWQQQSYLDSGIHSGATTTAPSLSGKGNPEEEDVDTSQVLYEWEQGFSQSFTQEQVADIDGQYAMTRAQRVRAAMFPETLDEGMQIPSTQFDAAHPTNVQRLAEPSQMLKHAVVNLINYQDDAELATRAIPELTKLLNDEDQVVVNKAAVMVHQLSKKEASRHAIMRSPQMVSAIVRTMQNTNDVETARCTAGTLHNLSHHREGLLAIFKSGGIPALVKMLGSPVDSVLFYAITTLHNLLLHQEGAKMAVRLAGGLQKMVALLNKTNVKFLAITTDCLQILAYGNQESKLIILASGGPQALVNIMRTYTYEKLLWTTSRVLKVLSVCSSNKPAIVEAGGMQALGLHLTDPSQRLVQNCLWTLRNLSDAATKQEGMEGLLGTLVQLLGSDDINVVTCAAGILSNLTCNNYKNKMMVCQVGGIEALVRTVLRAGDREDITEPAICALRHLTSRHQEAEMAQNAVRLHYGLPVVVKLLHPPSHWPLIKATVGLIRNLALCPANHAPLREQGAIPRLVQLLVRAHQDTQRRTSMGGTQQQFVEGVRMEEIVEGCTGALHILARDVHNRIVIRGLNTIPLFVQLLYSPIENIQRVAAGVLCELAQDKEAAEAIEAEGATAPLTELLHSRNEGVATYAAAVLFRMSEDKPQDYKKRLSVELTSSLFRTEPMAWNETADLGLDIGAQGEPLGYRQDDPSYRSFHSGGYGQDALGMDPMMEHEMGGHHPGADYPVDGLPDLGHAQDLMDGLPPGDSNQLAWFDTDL
Assay: Fluorescence polarization IC50 (beta-catenin / 5FAM-TCF4 10-53 competition)
Format: binding
Conditions: fluorescence polarization; read-out: beta-Catenin FP IC50
pIC50: −log10 of the molar value.
Class label 1: pIC50 at least 8. Class label 0: pIC50 below 8.

Record excerpt, results attached:
{"MOLECULE": "CC[C@H](C)[C@@H]1NC(=O)C[C@H](C(=O)O)NC(=O)[C@]2(CC=CCCCC3(CCCC=CCCCCCC[C@@](C)(C(=O)N[C@@H](Cc4ccccc4)C(=O)N[C@@H](Cc4csc5ccccc45)C(=O)N[C@@H](CCC(N)=O)C(N)=O)NC(=O)[C@H](CCC(N)=O)NC(=O)[C@H](Cc4ccccc4)NC(=O)[C@H](C)NC(=O)[C@H](C)NC(=O)[C@H](CCC(=O)O)NC(=O)[C@H](CC(=O)O)NC3=O)NC1=O)CCCN2C(C)=O (some centres unmarked) [I-669]", "LABEL_VALUE": "label 0"}
{"MOLECULE": "CC(=O)N1CCC[C@]12CC=CCCCC1(CCCC=CCCCOC(=O)N3CC[C@@](C(=O)N[C@@H](Cc4ccsc4)C(=O)N[C@@H](Cc4csc5ccccc45)C(=O)N[C@@H](Cc4ccccc4)C(N)=O)(C3)NC(=O)[C@H](CC(C)C)NC(=O)[C@H](Cc3ccccc3)NC(=O)[C@H](C)NC(=O)[C@H](C)NC(=O)[C@H](CN(CC(=O)O)CC(F)(F)F)NC(=O)[C@H](CC(=O)O)NC1=O)NC(=O)[C@H](CC(C)(C)C)NC(=O)[C@H](CC(=O)O)NC2=O (some centres unmarked) [I-1750]", "LABEL_VALUE": "label 0"}
{"MOLECULE": "CC(=O)N1CCC[C@]12CC=CCCCC1(CCCC=CCCCOC(=O)N3CC[C@@](C(=O)N[C@@H](Cc4ccsc4)C(=O)N[C@@H](Cc4csc5ccccc45)C(=O)N[C@@H](C)C(N)=O)(C3)NC(=O)[C@H](CC(C)C)NC(=O)[C@H](Cc3ccccc3)NC(=O)[C@H](C)NC(=O)[C@H](CCC(N)=O)NC(=O)[C@H](Cc3cc(C(=O)O)cc(C(F)(F)F)c3)NC(=O)[C@H](CC(=O)O)NC1=O)NC(=O)[C@H](CC(C)(C)C)NC(=O)[C@H](CC(=O)O)NC2=O (some centres unmarked)", "LABEL_VALUE": "label 0"}

We next turn to a different molecule, shown below.
q: Could you please find out whether CC(=O)N1CCC[C@]12CC=CCCCC1(CCCC=CCCCOC(=O)N3CC[C@@](C(=O)N[C@@H](Cc4ccsc4)C(=O)N[C@@H](Cc4csc5ccccc45)C(=O)N[C@@H](CCC(N)=O)C(N)=O)(C3)NC(=O)[C@H](CC(C)C)NC(=O)[C@H](Cc3ccccc3)NC(=O)[C@H](C)NC(=O)[C@H](C)NC(=O)[C@H](Cn3cc(CC4(C(=O)O)CCCCC4)nn3)NC(=O)[C@H](CC(=O)O)NC1=O)NC(=O)[C@H](CC(C)(C)C)NC(=O)[C@H](CC(=O)O)NC2=O (some centres unmarked) has pIC50 that meets 8 or exceeds it?
a: label 1

* * *

A collection of compounds and their measured pIC50
Biological target: full-length beta-Catenin (Uniprot ID P35222) (Homo sapiens)
Construct: 10 nM full-length beta-Catenin (Uniprot ID P35222)
Test: Fluorescence polarization IC50 (beta-catenin / 5FAM-TCF4 10-53 competition)
Type: binding
Conditions: fluorescence polarization; read-out: beta-Catenin FP IC50
# pIC50 = -log10(concentration in molar units)

Some entries whose results are on file:
{"COMPOUND": "CC(=O)N1CCC[C@]12CC=CCCCC1(CCCC=CCCCOC(=O)N3CC[C@@](C(=O)N[C@@H](Cc4ccsc4)C(=O)N[C@@H](Cc4csc5ccccc45)C(=O)N[C@@H](CCC(N)=O)C(N)=O)(C3)NC(=O)[C@H](CC(N)=O)NC(=O)[C@H](Cc3cccc(C(=O)O)c3)NC(=O)[C@H](C)NC(=O)[C@H](C)NC(=O)[C@H](Cc3c[nH]c4ccccc34)NC(=O)[C@H](CC(=O)O)NC1=O)NC(=O)[C@H](CC(C)(C)C)NC(=O)[C@H](CC(=O)O)NC2=O (stereo partly drawn) [I-2127]", "NUMERIC_VALUE": 7.44}
{"COMPOUND": "CC(=O)N1CCC[C@]12CC=CCCCCC1(CCCCC=CCCCOC(=O)N3CC[C@@](C(=O)N[C@@H](Cc4ccccc4C(F)(F)F)C(=O)N[C@@H](Cc4csc5ccccc45)C(=O)N[C@@H](CCC(N)=O)C(N)=O)(C3)NC(=O)[C@H](CC(C)C)NC(=O)[C@H](Cc3ccccc3)NC(=O)[C@H](C)NC(=O)[C@H](C)NC(=O)[C@H](Cc3cccc(C(=O)O)c3)NC(=O)[C@H](CC(=O)O)NC1=O)NC(=O)[C@H](CC(C)(C)C)NC(=O)[C@H](CC(=O)O)NC2=O (stereo partly drawn) [I-2514]", "NUMERIC_VALUE": 7.13}

For the next question, use this compound.
q: Request: pIC50, test system full-length beta-Catenin (Uniprot ID P35222) (Homo sapiens), entry CC(=O)N1CCC[C@]12CC=CCCCC1(CCCC=CCCCCCC[C@@](C)(C(=O)N[C@@H](Cc3ccccc3)C(=O)N[C@@H](Cc3csc4ccccc34)C(=O)N[C@@H](CCC(N)=O)C(N)=O)NC(=O)[C@H](CC(N)=O)NC(=O)[C@H](Cc3ccc(C)cc3)NC(=O)[C@H](C)NC(=O)[C@H](C)NC(=O)[C@H](CCC(=O)O)NC(=O)[C@H](CC(=O)O)NC1=O)NC(=O)[C@H](C)NC(=O)[C@H](CC(=O)O)NC2=O (stereo partly drawn) [I-459]
a: 6.74

* * *

pIC50 by entry:
Target: full-length beta-Catenin (Uniprot ID P35222) (Homo sapiens, UniProt P35222)
Construct: 10 nM full-length beta-Catenin (Uniprot ID P35222)
Assay: Fluorescence polarization IC50 (beta-catenin / 5FAM-TCF4 10-53 competition)
Assay type: binding
Conditions: fluorescence polarization; read-out: beta-Catenin FP IC50
Kindly note that pIC50 refers to -log10 of the concentration in mol/L and answer with the value alone.

{"MOLECULE": "CC(=O)N1CCC[C@]12CC=CCCCC1(CCCC=CCCCCCC[C@@](C)(C(=O)N[C@@H](Cc3ccccc3)C(=O)N[C@@H](Cc3csc4ccccc34)C(=O)N[C@@H](CCC(N)=O)C(N)=O)NC(=O)[C@H](C(C)C)NC(=O)[C@H](Cc3cccc(F)c3F)NC(=O)[C@H](C)NC(=O)[C@H](C)NC(=O)[C@H](CCC(=O)O)NC(=O)[C@H](CC(=O)O)NC1=O)NC(=O)[C@H](C)NC(=O)[C@H](CC(=O)O)NC2=O (stereo partly drawn) [I-391]", "pIC50": 5.72}
{"MOLECULE": "CC(=O)N1CCC[C@]12CC=CCCCC1(CCCC=CCCCCCC[C@@](C)(C(=O)N[C@@H](Cc3ccccc3)C(=O)N[C@@H](Cc3csc4ccccc34)C(=O)N[C@@H](CCC(N)=O)C(N)=O)NC(=O)[C@H](CC(N)=O)NC(=O)[C@H](Cc3ccccc3C)NC(=O)[C@H](C)NC(=O)[C@H](C)NC(=O)[C@H](CCC(=O)O)NC(=O)[C@H](CC(=O)O)NC1=O)NC(=O)[C@H](C)NC(=O)[C@H](CC(=O)O)NC2=O (stereo partly drawn) [I-457]", "pIC50": 5.84}

q: Fill in: pIC50 of CC(=O)N1CCC[C@]12CC=CCCCC1(CCCC=CCCCOC(=O)N3CC[C@@](C(=O)N[C@@H](Cc4ccsc4)C(=O)N[C@@H](Cc4csc5ccccc45)C(=O)N[C@@H](CCC(N)=O)C(N)=O)(C3)NC(=O)[C@H](CC(C)C)NC(=O)[C@H](Cc3cccc(C(=O)O)c3)NC(=O)[C@H](C)NC(=O)[C@H](C)NC(=O)[C@H](Cc3ccc(O)cc3)NC(=O)[C@H](CC(=O)O)NC1=O)NC(=O)[C@H](CC(C)(C)C)NC(=O)[C@H](CC(=O)O)NC2=O (stereo partly drawn) [I-2126] is ___
a: 7.17

q: Using the record for CC(=O)N1CCC[C@]12CC=CCCCC1(CCCC=CCCCOC(=O)N3CC[C@@](C(=O)N[C@@H](Cc4ccsc4)C(=O)N[C@@H](Cc4cccc(Br)c4)C(=O)N[C@@H](C)C(N)=O)(C3)NC(=O)[C@H](C(C)C)NC(=O)[C@H](Cc3ccccc3)NC(=O)[C@H](C)NC(=O)[C@H](CCC(N)=O)NC(=O)[C@H](Cc3cccc(C(=O)O)c3)NC(=O)[C@H](CC(=O)O)NC1=O)NC(=O)[C@H](CC(C)(C)C)NC(=O)[C@H](CC(=O)O)NC2=O (stereo partly drawn) [I-2308] , report its pIC50.
a: 8.10

q: What value of measured pIC50 is listed for CC(=O)N1CCC[C@]12CC=CCCCC1(CCCC=CCCCOC(=O)N3CC[C@@](C(=O)N[C@@H](Cc4ccccc4C(F)(F)F)C(=O)N[C@H](C(=O)N[C@@H](C)C(N)=O)[C@H](C)c4csc5ccccc45)(C3)NC(=O)[C@H](CC(C)C)NC(=O)[C@H](Cc3ccccc3)NC(=O)[C@H](C)NC(=O)[C@H](CCC(N)=O)NC(=O)[C@H](Cc3cccc(C(=O)O)c3)NC(=O)[C@H](CC(=O)O)NC1=O)NC(=O)[C@H](CC(C)(C)C)NC(=O)[C@H](CC(=O)O)NC2=O (stereo partly drawn) [I-2459] ?
a: 7.25

q: What value of pIC50 has been recorded for this entry: CC(=O)N1CCC[C@]12CC=CCCCC1(CCCC=CCCCOC(=O)N3CC[C@@](C(=O)N[C@@H](Cc4ccccc4Cl)C(=O)N[C@@H](Cc4csc5ccccc45)C(=O)N[C@@H](CC(C)C)C(N)=O)(C3)NC(=O)[C@H](CC(C)C)NC(=O)[C@H](Cc3ccccc3)NC(=O)[C@H](C)NC(=O)[C@H](C)NC(=O)[C@H](CC(=O)O)NC(=O)[C@H](CC(=O)O)NC1=O)NC(=O)[C@H](CC(C)(C)C)NC(=O)[C@H](CC(=O)O)NC2=O (stereo partly drawn) [I-1417]
a: 6.70

q: Would you kindly share the measured pIC50 for CC(=O)N1CCC[C@]12CC=CCCCC1(CCCC=CCCCOC(=O)N3CC[C@](C(=O)N[C@@H](Cc4ccsc4)C(=O)N[C@@H](Cc4csc5ccccc45)C(=O)N[C@@H](CCC(N)=O)C(N)=O)(C3)NC(=O)[C@H](CC(C)C)NC(=O)[C@H](Cc3ccccc3)NC(=O)[C@H](C)NC(=O)[C@H](C)NC(=O)[C@H](CC(=O)O)NC(=O)[C@H](CC(=O)O)NC1=O)NC(=O)[C@H](CC(C)(C)C)NC(=O)[C@H](CC(=O)O)NC2=O (stereo partly drawn) [I-2019] ?
a: 5.84

q: Quick check: pIC50 of CC(=O)N1CCC[C@]12CC=CCCCC1(CCCC=CCCCOC(=O)N3CC[C@@](C(=O)N[C@@H](Cc4cccc(C(F)(F)F)c4)C(=O)N[C@@H](Cc4csc5ccccc45)C(=O)N[C@@H](CCC(N)=O)C(N)=O)(C3)NC(=O)[C@H](CC(N)=O)NC(=O)[C@H](Cc3ccccc3)NC(=O)[C@H](C)NC(=O)[C@H](C)NC(=O)[C@H]([C@@H](C)O)NC(=O)[C@H](CC(N)=O)NC1=O)NC(=O)[C@H](CC(C)(C)C)NC(=O)[C@H](CC(=O)O)NC2=O (stereo partly drawn) [I-1997] ?
a: 5.47

q: Which pIC50 value belongs to COC(=O)C[C@@H]1NC(=O)[C@]2(CC=CCCCC3(CCCC=CCCCOC(=O)N4CC[C@@](C(=O)N[C@@H](Cc5ccsc5)C(=O)N[C@@H](Cc5csc6ccccc56)C(=O)N[C@@H](CCC(N)=O)C(N)=O)(C4)NC(=O)[C@H](CC(C)C)NC(=O)[C@H](Cc4ccccc4)NC(=O)[C@H](C)NC(=O)[C@H](C)NC(=O)[C@H](CC(=O)O)NC(=O)[C@H](CC(=O)O)NC3=O)NC(=O)[C@H](CC(C)(C)C)NC1=O)CCCN2C(C)=O (stereo partly drawn) [I-2359] ?
a: 6.37
